# assayedTarget: D2L receptor (Rattus norvegicus)
# Sequence (P61169 whole entry): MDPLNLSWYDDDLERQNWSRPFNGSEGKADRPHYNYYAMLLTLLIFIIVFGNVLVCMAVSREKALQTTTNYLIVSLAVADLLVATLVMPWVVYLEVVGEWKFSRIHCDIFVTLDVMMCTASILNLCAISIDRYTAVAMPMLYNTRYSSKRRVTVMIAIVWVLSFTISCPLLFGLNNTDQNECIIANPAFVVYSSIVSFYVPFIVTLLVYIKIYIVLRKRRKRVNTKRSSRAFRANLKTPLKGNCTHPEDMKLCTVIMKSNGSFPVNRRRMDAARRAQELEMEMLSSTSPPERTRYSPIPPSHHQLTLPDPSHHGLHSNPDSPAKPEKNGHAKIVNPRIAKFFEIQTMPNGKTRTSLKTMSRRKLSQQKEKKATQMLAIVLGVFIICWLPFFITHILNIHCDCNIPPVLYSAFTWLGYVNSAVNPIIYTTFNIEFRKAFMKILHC
# testProtocol: Inhibition of [3H]spiperone binding to cloned D2L receptors expressed in HEK-293 cells
# assayContext: rat D2L in HEK-293 cells, read-out: Ki, D2 receptor
Ki values by entry

>  <molecule>
CCCN(CCN1CCN(c2ccc3[nH]ccc3c2)CC1)C1CCc2ccc(O)cc2C1 (stereo not drawn)

>  <quantityUnit>
nM

>  <Ki>
30

$$$$
>  <molecule>
CCCN(CCN1CCN(Cc2ccc3[nH]ccc3c2)CC1)C1CCc2ccc(O)cc2C1 (stereo not drawn) [Compound 40b]

>  <quantityUnit>
nM

>  <Ki>
144

$$$$
>  <molecule>
CCCN(CCN1CCN(C(=O)c2cnc3ccccc3c2)CC1)C1CCc2c(O)cccc2C1 (stereo not drawn) [Compound 40j]

>  <quantityUnit>
nM

>  <Ki>
158

$$$$
>  <molecule>
CCCN(CCN1CCN(C(=O)c2c[nH]c3ccccc23)CC1)C1CCc2c(O)cccc2C1 (stereo not drawn) [Compound 40f]

>  <quantityUnit>
nM

>  <Ki>
58.9

$$$$
>  <molecule>
CCCN(CCN1CCN(C(=O)c2ccc3[nH]ccc3c2)CC1)[C@H]1CCc2c(O)cccc2C1 [Compound (−)-45]

>  <quantityUnit>
nM

>  <Ki>
157

$$$$
>  <molecule>
CCCN(CCN1CCN(C(=O)c2n[nH]c3ccccc23)CC1)C1CCc2c(O)cccc2C1 (stereo not drawn) [Compound 40g]

>  <quantityUnit>
nM

>  <Ki>
28

$$$$
>  <molecule>
CCCN(CCN1CCN(C(=O)c2cc3ccccc3s2)CC1)C1CCc2c(O)cccc2C1 (stereo not drawn) [Compound 40i]

>  <quantityUnit>
nM

>  <Ki>
76.9

$$$$
>  <molecule>
CCCN(CCN1CCN(C(=O)c2cc3ccccc3[nH]2)CC1)C1CCc2ccc(O)cc2C1 (stereo not drawn) [Compound 40c]

>  <quantityUnit>
nM

>  <Ki>
116

$$$$
>  <molecule>
CCCN(CCN1CCN(Cc2ccc(O)c3ncccc23)CC1)C1CCc2ccc(O)cc2C1 (stereo not drawn) [Compound 12a]

>  <quantityUnit>
nM

>  <Ki>
86

$$$$

---

Counter-ions that a name gives are not always drawn.

>  <molecule>
CCCN(CCN1CCN(Cc2cc3ccccc3[nH]2)CC1)C1CCc2ccc(O)cc2C1 (stereo not shown) (as salt: oxalate) [Compound 40d]

>  <melting point>
135 to 137 °C

$$$$
>  <molecule>
CCCN(CCN1CCN(c2ccnc3c(O)cccc23)CC1)C1CCc2c(O)cccc2C1 (single isomer, unassigned; (-)) (as salt: hydrochloride) [Compound (−)19b]

>  <melting point>
237 to 240 °C

$$$$
>  <molecule>
CCCN(CCN1CCN(C(=O)c2cc3ccccc3[nH]2)CC1)C1CCc2ccc(O)cc2C1 (stereo not shown) (as salt: HCl) [Compound 40c]

>  <melting point>
203 to 205 °C

$$$$
>  <molecule>
CCCN(CCN1CCN(Cc2ccc(O)c3ncccc23)CC1)C1CCc2c(O)cccc2C1 (stereo not shown) (as salt: hydrochloride) [Compound 12b]

>  <melting point>
252 to 255 °C

$$$$
